tested on: CYP2B6; conditions: upcyte Donor 422A-03; mean from two experiments

molecule	target or system	CYP2B6 Indmax
C=C[C@H]1C[N@@]2CC[C@H]1C[C@@H]2[C@@H](O)c1ccnc2ccc(OC)cc12 [Quinidine, quinidine]	CYP2B6	No induction
CCOC(=O)c1ncn2c1CN(C)C(=O)c1cc(F)ccc1-2 [Flumazenil, flumazenil]	CYP2B6	No induction
C[C@@H]1C[C@H]2[C@@H]3CCC4=CC(=O)C=C[C@]4(C)[C@@]3(F)[C@@H](O)C[C@]2(C)[C@@]1(O)C(=O)CO [Dexamethasone, dexamethasone]	CYP2B6	No induction

====

tested on: CYP2B6; conditions: upcyte Donor 422A-03; relative to positive control phenobarbital, equation 2
endpoint: CYP2B6 % PB

C=C[C@H]1C[N@@]2CC[C@H]1C[C@@H]2[C@@H](O)c1ccnc2ccc(OC)cc12 No induction
CCOC(=O)c1ncn2c1CN(C)C(=O)c1cc(F)ccc1-2 No induction
C[C@@H]1C[C@H]2[C@@H]3CCC4=CC(=O)C=C[C@]4(C)[C@@]3(F)[C@@H](O)C[C@]2(C)[C@@]1(O)C(=O)CO No induction

====

system: CYP3A4; conditions: upcyte Donor 151-03; mean from two experiments
endpoint: CYP3A4 Indmax

molecule	endpoint	value observed
CCOC(=O)c1ncn2c1CN(C)C(=O)c1cc(F)ccc1-2 [Flumazenil, flumazenil]	CYP3A4 Indmax	No induction
CCc1ccc(CCOc2ccc(CC3SC(=O)NC3=O)cc2)nc1 (stereo not drawn) [Pioglitazone, pioglitazone]	CYP3A4 Indmax	4.0 fold
C=C[C@H]1C[N@@]2CC[C@H]1C[C@@H]2[C@@H](O)c1ccnc2ccc(OC)cc12 [Quinidine, quinidine]	CYP3A4 Indmax	No induction

====

Please respond with reported CYP2B6 % PB for every item in the list.
test system: CYP2B6; conditions: upcyte Donor 10-03; relative to positive control phenobarbital, equation 2
Numeric answer only, unit % assumed.

Given the entry CO[C@H]1/C=C/O[C@@]2(C)Oc3c(C)c(O)c4c(O)c(c(/C=N/N5CCN(C)CC5)c(O)c4c3C2=O)NC(=O)/C(C)=C\C=C\[C@H](C)[C@H](O)[C@@H](C)[C@@H](O)[C@@H](C)[C@H](OC(C)=O)[C@@H]1C , report its measured CYP2B6 % PB.
34

Consider the compound shown here: Cc1c(C)c2c(c(C)c1O)CCC(C)(COc1ccc(CC3SC(=O)NC3=O)cc1)O2 (stereo not shown) What is its recorded CYP2B6 % PB?
150

Data request, read-out CYP2B6 % PB, for COc1ccc2[nH]c([S+]([O-])Cc3ncc(C)c(OC)c3C)nc2c1 (stereo not shown)
31

Query (compound): NC(=O)N1c2ccccc2C=Cc2ccccc21 [Carbamazepine, carbamazepine] ; field requested: CYP2B6 % PB
33

====

system: CYP2B6; settings: upcyte Donor 653-03; relative to positive control phenobarbital, equation 2
endpoint: CYP2B6 % PB

molecule	target or system	endpoint	value observed
C=C[C@H]1C[N@@]2CC[C@H]1C[C@@H]2[C@@H](O)c1ccnc2ccc(OC)cc12 [Quinidine, quinidine]	CYP2B6	CYP2B6 % PB	No induction
CCOC(=O)c1ncn2c1CN(C)C(=O)c1cc(F)ccc1-2 [Flumazenil, flumazenil]	CYP2B6	CYP2B6 % PB	No induction
C[C@@H]1C[C@H]2[C@@H]3CCC4=CC(=O)C=C[C@]4(C)[C@@]3(F)[C@@H](O)C[C@]2(C)[C@@]1(O)C(=O)CO [Dexamethasone, dexamethasone]	CYP2B6	CYP2B6 % PB	No induction

The origin of these recorded values is paper PMC4618636.
